Test system: 132 strains of Staphylococcus aureus (106 MRSA and 26 MSSA strains)
measurement-notes: MIC50/MIC90 micro-broth dilution, all strains
stated-conditions: S. aureus spp. ALL
property-name: MIC range

Known results for compounds:
CN[C@H](CC(C)C)C(=O)N[C@H]1C(=O)N[C@@H](CC(N)=O)C(=O)N[C@H]2C(=O)N[C@H]3C(=O)N[C@H](C(=O)N[C@H](C(=O)O)c4cc(O)cc(O)c4-c4cc3ccc4O)[C@H](O)c3ccc(c(Cl)c3)Oc3cc2cc(c3O[C@@H]2O[C@H](CO)[C@@H](O)[C@H](O)[C@H]2O[C@H]2C[C@](C)(N)[C@H](O)[C@H](C)O2)Oc2ccc(cc2Cl)[C@H]1O [Vancomycin]; 0.5 to 64 µg/mL
CCC[C@@H]1C[C@@H](C(=O)N[C@@H]([C@H]2O[C@H](SC)[C@H](O)[C@@H](O)[C@H]2O)[C@H](C)Cl)N(C)C1.Cl.O [Clindamycin, Clindamycin hydrochloride monohydrate]; 0.03 to 64 µg/mL
CCCCCCCCCC(=O)N[C@@H](Cc1c[nH]c2ccccc12)C(=O)N[C@H](CC(N)=O)C(=O)N[C@@H](CC(=O)O)C(=O)N[C@@H]1C(=O)NCC(=O)N[C@@H](CCCN)C(=O)N[C@@H](CC(=O)O)C(=O)N[C@H](C)C(=O)N[C@@H](CC(=O)O)C(=O)NCC(=O)N[C@H](CO)C(=O)N[C@@H]([C@H](C)CC(=O)O)C(=O)N[C@@H](CC(=O)c2ccccc2N)C(=O)O[C@@H]1C [Daptomycin, reference compound]; 0.5 to 16 µg/mL
C=C(C)C1CCC(C)=CC1c1c(O)cc(CCCCC)cc1O (centres unmarked) [Cannabidiol]; 0.25 to 8 µg/mL

Input line: # lookup: MIC range of C/C(=C\C(=O)OCCCCCCCCC(=O)O)C[C@@H]1OC[C@H](C[C@@H]2O[C@H]2[C@@H](C)[C@H](C)O)[C@@H](O)[C@H]1O [Mupirocin]
Output line: 0.125 to 64 µg/mL
